Assay: Human HepG2 cell viability assay in 384 well format
Assay type: toxicity, cell-based
Parameters: dose 125 nL, time 70.5 hour; concentration not given beside the values
Settings: HepG2 cells, read-out: Inhibition
Listing of recorded cytotoxicity at 70.5 h by entry.
experimental endpoint: cytotoxicity at 70.5 h (%)

In [3]: df
Out[3]:
                                    compound  units  recorded_measurement
 0  Cc1ccccc1CSc1nc(N)cc(N2CCCC(O)C2)n1 (stereo not drawn)      %                 0.482
 1  CCCS(=O)(=O)NC(C)c1cccc(-n2cccn2)c1 (stereo not drawn)      %                 -6.77
 2  COCCOc1cccc(C(=O)N2CCCC(n3ccnc3C)C2)c1 (stereo not drawn)      %                 -2.47
 3  Cc1nn(C)c(N(C)C)c1CNC(C)c1cccc(OC(C)C)c1 (stereo not drawn)      %                 -11.2
 4  COC1COC2(CCN(C(=O)c3cnc(C)cn3)CC2)C1 (stereo not drawn)      %                 -6.81
 5  CN1CCC2(Cc3ccccc3NC2=O)C1 (stereo not drawn)      %                 -3.49
 6           Cc1ccccc1-n1nccc1NC(=O)CCOC(C)C      %                  11.4
 7          CC(C)n1cc(S(=O)(=O)N2CCCCCC2)cn1      %                 -2.52
 8  CNC(=O)[C@@]12CCO[C@@H]1CCN(S(=O)(=O)c1cccc(F)c1)C2      %                 -10.2
 9  COCC(=O)N1CCCC2(CCN(c3ccccc3)C2=O)C1 (stereo not drawn)      %                 -13.1
10               COc1ccccc1OC1CN(c2ccncc2)C1      %                 -4.23
11  Cc1cc(C(=O)N2CCCC2CN2CCCC2)no1 (stereo not drawn)      %                  12.9
12  Cc1nc(CN(C)C2CCN(Cc3cccc4cccnc34)C2)no1 (stereo not drawn)      %                    34
13  COc1ccc(CCNC(=O)CC(NC(N)=O)c2ccccc2)cc1 (stereo not drawn)      %                  14.7
14  CC(C)CN1C(=O)C2(CCCC2)NC1c1cn(C)c(=O)n(C)c1=O (stereo not drawn)      %                 0.777
15              COc1cccn(CC(=O)N(C)CCSC)c1=O      %                 -12.7
16       Cc1noc(CN2CC(=O)N(C)c3ccccc3C2=O)n1      %                 -8.97
17  Fc1ccc(C2(c3noc(CCN4CCCCO4)n3)CCOC2)cc1 (stereo not drawn)      %                 -11.7
18  CN(C(=O)Cn1nc(-c2ccccc2)ccc1=O)C1CCS(=O)(=O)C1 (stereo not drawn)      %                 -12.1
19          O=c1[nH]nc(C2CC2)n1-c1cccc(Cl)c1      %                 -4.41
20  CC(=O)N(Cc1noc(C2CC2)n1)C1CCN(CC2CCOCC2)C1 (stereo not drawn)      %                  22.1
21  Cc1nc(C(=O)N2CCCC(c3cccc(-n4ccnc4)n3)C2)co1 (stereo not drawn)      %                  4.94
22           Cc1ccc(CNC(=O)CCNS(C)(=O)=O)cc1      %                 -5.54
